# ASSAY TARGET: Thrombin (Homo sapiens, UniProt P00734)
# PROTOCOL: Thrombin inhibition constant (Ki)
# Type: biochemical
# CONDITION DESCRIPTION: read-out: Ki [μmol/l] Thrombin
ASSAY ENDPOINT: Ki (µmol/L)

P = N=C(N)c1cccc(CC(NS(=O)(=O)c2ccc3ccccc3c2)C(=O)N2CCCCC2)c1 (stereo not drawn)
Q = CCOC(=O)C1CCN(C(=O)C(Cc2cccc(C(=N)N)c2)NS(=O)(=O)c2ccc3ccccc3c2)CC1 (stereo not drawn)
// which entry reports the smaller Ki, P or Q ? State your choice using its label. P
(P: 0.065 µmol/L, Q: 0.36 µmol/L)

Data credit: patent US7232690B1
